Source: PubChem BioAssay (NCI)

System: CAKI-1 renal
Protocol: NCI-60 one-dose screen, 48 h (100 = growth as untreated, 0 = no growth, -100 = all killed)
Condition set: 10 µM
Compounds without any hit were thinned out: in the full panel of roughly 83,000, 20% have a hit.
Measured endpoint: growth (%)
# value in %; strip the unit string

For the molecule CCOC(=O)/C(=C(\C)N)C1CC(=O)NC1=O (stereo unspecified) , give its measured growth value. 98.2

Identify measured growth associated with `Cc1cc(SC#N)cc(C(C)(C)C)c1O` 96.4

For the molecule `O=C1c2ccccc2C(=O)c2c1ccc1c(=O)n(-c3ccccc3C(F)(F)F)nnc21` , give its measured growth value. 24.3

Name the recorded growth of the molecule listed here: C#C[C@]1(O)CCC2C3CCc4cc(OC5CCCC5)ccc4C3CC[C@@]21C (stereo partly specified) 42

Give the value of growth reported for the following: `CCN(CC)CCOC(=O)c1cc(OCc2ccccc2)c(OCc2ccccc2)c(OCc2ccccc2)c1` 50.4

Given `C=CCNCCN1C(=O)c2ccc3c4c(ccc(c24)C1=O)C(=O)N(CCNCC=C)C3=O` , respond with its growth. -64.2

---

Tested on: SN12C renal
Protocol: NCI-60 one-dose screen, 48 h (100 = growth as untreated, 0 = no growth, -100 = all killed)
Condition set: 10 µM
Procedure: Growth inhibition of the SN12C human tumor cell line is measured as a screen for anti-cancer activity. Cells are grown in 96 well plates and exposed to the test compound for 48 hours. Compounds are tested at a single concentration, which is 10^-5 M for most compounds. The reported endpoint is percent growth (GI% or GIPRCNT), where numbers from 0 - 100% represent growth inhibition, and numbers from -100% - 0 represent cell death. For example, a value of 40 represents 60% growth inhibition. […]
About 83,000 compounds went through this panel and 20% of them were active in at least one assay; those are over-represented in the sample as a whole.
This listing pairs compounds with measured growth.
Note: unit % is implicit; provide only the numeric part.

Compound: CC(=O)N[C@H](C(=O)N[C@@H](CCCNC(=N)N)C(=O)N[C@@H](CCCCN)C(=O)N[C@@H](CCCNC(=N)N)C(=O)N[C@]1(C)CCCCCC/C=C\CCC[C@@](C)(C(=O)N[C@@H](CCCNC(=N)N)C(=O)N[C@@H](CCC(=O)O)C(=O)N[C@@H](CC(C)C)C(=O)N[C@H](C(=O)N[C@@H](CCC(=O)O)C(N)=O)C(C)C)NC(=O)[C@H](CCC(N)=O)NC(=O)[C@H](CC(C)C)NC(=O)[C@H](CC(C)C)NC(=O)[C@H](CCCNC(=N)N)NC(=O)[C@H](CCCNC(=N)N)NC(=O)[C@H](CC(C)C)NC1=O)C(C)C
growth (%): -41.3

State its growth: `COc1cc2cc(Oc3ccc(NC(=O)c4ccccc4)cc3)c(C)nc2cc1OC` 81

Indicate its recorded growth; the compound in question is `NC1=CC(=O)C(=O)c2cccnc21` 70

Look up growth of C[C@]12CCC3c4ccc(O)cc4C[C@@H](CCCCCCCCCS(=O)CCCC(F)(F)C(F)(F)F)C3C1CC[C@@H]2O (stereo partly drawn) and report it. 93.7

Fill in growth for record `COc1cc2c3c(n(C4CCNCC4)c(=O)c2cc1OC)-c1cc2c(cc1C3=O)OCO2` -69
